Overview of recorded OD450 for various binders
Target: T1, human CD22-ECD-His protein (human, UniProt P20273 20-687)
T1 construct: Made in house in HEK293E; also called hCD22-ECD-His; recombinant human CD22-ECD His protein; not shown: His tag
T1 sequence: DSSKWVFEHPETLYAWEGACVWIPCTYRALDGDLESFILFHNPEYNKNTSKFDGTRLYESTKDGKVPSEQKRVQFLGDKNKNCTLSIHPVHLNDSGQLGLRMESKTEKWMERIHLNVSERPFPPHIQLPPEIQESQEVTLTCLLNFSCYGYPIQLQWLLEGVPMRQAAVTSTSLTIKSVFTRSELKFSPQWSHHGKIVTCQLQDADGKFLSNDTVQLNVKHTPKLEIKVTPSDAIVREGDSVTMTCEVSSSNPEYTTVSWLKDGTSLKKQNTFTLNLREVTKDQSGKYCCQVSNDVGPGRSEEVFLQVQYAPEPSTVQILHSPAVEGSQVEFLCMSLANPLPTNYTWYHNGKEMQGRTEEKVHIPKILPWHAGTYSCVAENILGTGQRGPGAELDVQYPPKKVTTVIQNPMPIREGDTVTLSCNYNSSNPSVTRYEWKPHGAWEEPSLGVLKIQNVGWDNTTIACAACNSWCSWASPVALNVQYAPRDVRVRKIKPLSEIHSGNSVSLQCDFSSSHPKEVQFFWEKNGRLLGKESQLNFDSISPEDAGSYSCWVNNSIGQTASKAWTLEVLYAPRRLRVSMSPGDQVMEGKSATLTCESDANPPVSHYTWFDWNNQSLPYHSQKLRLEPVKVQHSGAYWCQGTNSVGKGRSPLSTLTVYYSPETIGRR
Assay: ELISA, Ab 0.10 nM
Express it in OD450; write the number only.

// worked examples, OD450 included
binder	displayUnit	OD450
F2.343.16 (antibody, human IgG1, lambda, V domains shown, Human-murine chimeric IgG1, lambda) VH: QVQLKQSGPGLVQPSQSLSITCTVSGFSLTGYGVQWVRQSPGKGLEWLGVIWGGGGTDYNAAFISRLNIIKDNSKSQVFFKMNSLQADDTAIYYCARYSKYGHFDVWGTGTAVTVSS VL: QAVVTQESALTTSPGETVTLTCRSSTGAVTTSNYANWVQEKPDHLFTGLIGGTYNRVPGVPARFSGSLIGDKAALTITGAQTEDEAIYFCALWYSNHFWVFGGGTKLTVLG	OD450	1.93
F1.250.16 (antibody, human IgG1, kappa, V domains shown, Human-murine chimeric IgG1, kappa) VH: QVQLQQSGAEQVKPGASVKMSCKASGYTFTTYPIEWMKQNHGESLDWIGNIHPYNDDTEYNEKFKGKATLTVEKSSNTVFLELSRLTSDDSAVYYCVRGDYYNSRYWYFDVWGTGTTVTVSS VL: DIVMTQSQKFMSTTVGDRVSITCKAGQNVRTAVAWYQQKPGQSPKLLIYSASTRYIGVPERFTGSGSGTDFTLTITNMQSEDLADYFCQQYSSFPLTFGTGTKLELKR	OD450	2.58
F1.245.2 (antibody, human IgG1, kappa, V domains shown, Human-murine chimeric IgG1, kappa) VH: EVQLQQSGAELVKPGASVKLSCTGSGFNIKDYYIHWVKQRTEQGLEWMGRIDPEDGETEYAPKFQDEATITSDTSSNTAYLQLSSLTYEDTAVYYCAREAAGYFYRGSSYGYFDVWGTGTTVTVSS VL: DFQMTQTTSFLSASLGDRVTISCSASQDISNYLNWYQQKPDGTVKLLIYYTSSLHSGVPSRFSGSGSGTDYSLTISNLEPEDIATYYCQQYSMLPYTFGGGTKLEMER	OD450	2.57
F1.17.1 (antibody, human IgG1, kappa, V domains shown, Human-murine chimeric IgG1, kappa) VH: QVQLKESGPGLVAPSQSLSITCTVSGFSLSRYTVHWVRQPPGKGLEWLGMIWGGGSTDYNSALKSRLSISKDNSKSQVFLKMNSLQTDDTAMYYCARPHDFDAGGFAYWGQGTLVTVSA VL: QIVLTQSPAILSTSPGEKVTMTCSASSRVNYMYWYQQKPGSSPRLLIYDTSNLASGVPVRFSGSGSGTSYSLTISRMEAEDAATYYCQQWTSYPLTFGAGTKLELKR	OD450	2.41

Next up:
Q: I would be grateful if you could share the reported OD450 for F2.70.2 (antibody, human IgG1, lambda, V domains shown, Human-murine chimeric IgG1, lambda) VH: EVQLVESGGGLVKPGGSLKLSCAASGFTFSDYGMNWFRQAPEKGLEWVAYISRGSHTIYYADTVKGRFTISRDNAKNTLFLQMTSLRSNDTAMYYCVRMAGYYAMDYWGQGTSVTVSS VL: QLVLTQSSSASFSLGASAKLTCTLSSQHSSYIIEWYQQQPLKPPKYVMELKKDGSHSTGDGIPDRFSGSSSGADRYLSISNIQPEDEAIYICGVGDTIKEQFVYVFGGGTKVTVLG .
A: 1.86
